Assay: Stability in Simulated Intestinal Fluid (SIF)
Type: in vitro ADME
Settings: SIF:acetonitrile 9:1, 0.01 mg/mL, 37° C.
Experimental: Stability in Simulated Gastric Fluid (SGF) and Simulated Intestinal Fluid (SIF). Procedure from Baudy et. al. (J. Med. Chem. 2009, 52, 771-778) used. The physiological stability of pro-drugs was determined by examining the stability of the compound in SGF, and SIF at 37° C. […] The percent remaining of pro-drug was calculated by comparing the area of pro-drug compound versus riluzole generated. […]
endpoint-label: SIF (3 hours), percent of pro-drug metabolized to riluzole (%)
Give bare numbers, in %.

Recorded SIF (3 hours), percent of pro-drug metabolized to riluzole, per entry:
CC(C)COC(=O)Nc1nc2ccc(OC(F)(F)F)cc2s1; 0
CCCCOC(=O)Nc1nc2ccc(OC(F)(F)F)cc2s1; 0
Nc1ccc(C(=O)Nc2nc3ccc(OC(F)(F)F)cc3s2)cc1; 0

Provide reported SIF (3 hours), percent of pro-drug metabolized to riluzole for each item, in the same order as listed.
1. CC(C)[C@H](N)C(=O)Nc1nc2ccc(OC(F)(F)F)cc2s1
2. N[C@@H](COCc1ccccc1)C(=O)Nc1nc2ccc(OC(F)(F)F)cc2s1
3. O=C(Cc1ccccc1[N+](=O)[O-])Nc1nc2ccc(OC(F)(F)F)cc2s1
4. COC(=O)Nc1nc2ccc(OC(F)(F)F)cc2s1
5. N[C@H](Cc1ccccc1)C(=O)Nc1nc2ccc(OC(F)(F)F)cc2s1

Result string:
1. 40
2. 0
3. 0
4. 0
5. 0
